# target: human recombinant LRRK2 protein (Homo sapiens)
# assay-procedure: LRRK2 kinase activity assay (ADP-Glo, LRRKtide peptide)
# conditions: human recombinant LRRK2 wt, LRRKtide peptide and ATP, 1 h at 37° C.
Collected IC50 values appear next to each entry.

O=C1COc2cc(cc(N3C[C@@H](F)[C@H](F)C3)c2)-c2n[nH]c3ccc(cc23)OCCCN1 [Example 216]; < 10 nM

If you can, please state the reported IC50 value of [2H]C1([2H])OCCO[C@@H](C)COc2ccc3[nH]nc(c3c2)-c2cnn(c2)C1([2H])[2H] [Example 110] . < 10 nM

May I ask what IC50 has been recorded for C[C@@H]1COCC[C@H](C)Oc2ccc3[nH]nc(c3c2)-c2cccc(n2)O1 [Example 33] ? < 100 nM

Consider the compound c1cc2[nH]nc3c2cc1OCCCNCCOc1cncc-3c1 [Example 137] and give its measured IC50. < 10 nM

Would you kindly share the measured IC50 for O=C1COc2cc(C3=CCOC3)cc(c2)-c2n[nH]c3ccc(cc23)OCCCN1 [Example 211] ? < 10 nM

Find the recorded IC50 belonging to COCC1CCOc2ccc3[nH]nc(c3c2)-c2cccc(c2)OCCN1 (single isomer, unassigned) [Example 151] and report it. < 100 nM

Could you tell me which IC50 is on file for c1cc2[nH]nc3c2cc1OCCNCCCOc1cc-3cc(N2CCOCC2)c1 [Example 236] ? < 10 nM

# IC50 lookup, item C[C@@H]1CCOCC[C@@H](C)n2ncc(n2)-c2n[nH]c3ccc(cc23)O1 [Example 94] < 10 nM

###

# target: human recombinant LRRK2 protein (Homo sapiens, UniProt Q5S007)
# Sequence (Q5S007 whole entry): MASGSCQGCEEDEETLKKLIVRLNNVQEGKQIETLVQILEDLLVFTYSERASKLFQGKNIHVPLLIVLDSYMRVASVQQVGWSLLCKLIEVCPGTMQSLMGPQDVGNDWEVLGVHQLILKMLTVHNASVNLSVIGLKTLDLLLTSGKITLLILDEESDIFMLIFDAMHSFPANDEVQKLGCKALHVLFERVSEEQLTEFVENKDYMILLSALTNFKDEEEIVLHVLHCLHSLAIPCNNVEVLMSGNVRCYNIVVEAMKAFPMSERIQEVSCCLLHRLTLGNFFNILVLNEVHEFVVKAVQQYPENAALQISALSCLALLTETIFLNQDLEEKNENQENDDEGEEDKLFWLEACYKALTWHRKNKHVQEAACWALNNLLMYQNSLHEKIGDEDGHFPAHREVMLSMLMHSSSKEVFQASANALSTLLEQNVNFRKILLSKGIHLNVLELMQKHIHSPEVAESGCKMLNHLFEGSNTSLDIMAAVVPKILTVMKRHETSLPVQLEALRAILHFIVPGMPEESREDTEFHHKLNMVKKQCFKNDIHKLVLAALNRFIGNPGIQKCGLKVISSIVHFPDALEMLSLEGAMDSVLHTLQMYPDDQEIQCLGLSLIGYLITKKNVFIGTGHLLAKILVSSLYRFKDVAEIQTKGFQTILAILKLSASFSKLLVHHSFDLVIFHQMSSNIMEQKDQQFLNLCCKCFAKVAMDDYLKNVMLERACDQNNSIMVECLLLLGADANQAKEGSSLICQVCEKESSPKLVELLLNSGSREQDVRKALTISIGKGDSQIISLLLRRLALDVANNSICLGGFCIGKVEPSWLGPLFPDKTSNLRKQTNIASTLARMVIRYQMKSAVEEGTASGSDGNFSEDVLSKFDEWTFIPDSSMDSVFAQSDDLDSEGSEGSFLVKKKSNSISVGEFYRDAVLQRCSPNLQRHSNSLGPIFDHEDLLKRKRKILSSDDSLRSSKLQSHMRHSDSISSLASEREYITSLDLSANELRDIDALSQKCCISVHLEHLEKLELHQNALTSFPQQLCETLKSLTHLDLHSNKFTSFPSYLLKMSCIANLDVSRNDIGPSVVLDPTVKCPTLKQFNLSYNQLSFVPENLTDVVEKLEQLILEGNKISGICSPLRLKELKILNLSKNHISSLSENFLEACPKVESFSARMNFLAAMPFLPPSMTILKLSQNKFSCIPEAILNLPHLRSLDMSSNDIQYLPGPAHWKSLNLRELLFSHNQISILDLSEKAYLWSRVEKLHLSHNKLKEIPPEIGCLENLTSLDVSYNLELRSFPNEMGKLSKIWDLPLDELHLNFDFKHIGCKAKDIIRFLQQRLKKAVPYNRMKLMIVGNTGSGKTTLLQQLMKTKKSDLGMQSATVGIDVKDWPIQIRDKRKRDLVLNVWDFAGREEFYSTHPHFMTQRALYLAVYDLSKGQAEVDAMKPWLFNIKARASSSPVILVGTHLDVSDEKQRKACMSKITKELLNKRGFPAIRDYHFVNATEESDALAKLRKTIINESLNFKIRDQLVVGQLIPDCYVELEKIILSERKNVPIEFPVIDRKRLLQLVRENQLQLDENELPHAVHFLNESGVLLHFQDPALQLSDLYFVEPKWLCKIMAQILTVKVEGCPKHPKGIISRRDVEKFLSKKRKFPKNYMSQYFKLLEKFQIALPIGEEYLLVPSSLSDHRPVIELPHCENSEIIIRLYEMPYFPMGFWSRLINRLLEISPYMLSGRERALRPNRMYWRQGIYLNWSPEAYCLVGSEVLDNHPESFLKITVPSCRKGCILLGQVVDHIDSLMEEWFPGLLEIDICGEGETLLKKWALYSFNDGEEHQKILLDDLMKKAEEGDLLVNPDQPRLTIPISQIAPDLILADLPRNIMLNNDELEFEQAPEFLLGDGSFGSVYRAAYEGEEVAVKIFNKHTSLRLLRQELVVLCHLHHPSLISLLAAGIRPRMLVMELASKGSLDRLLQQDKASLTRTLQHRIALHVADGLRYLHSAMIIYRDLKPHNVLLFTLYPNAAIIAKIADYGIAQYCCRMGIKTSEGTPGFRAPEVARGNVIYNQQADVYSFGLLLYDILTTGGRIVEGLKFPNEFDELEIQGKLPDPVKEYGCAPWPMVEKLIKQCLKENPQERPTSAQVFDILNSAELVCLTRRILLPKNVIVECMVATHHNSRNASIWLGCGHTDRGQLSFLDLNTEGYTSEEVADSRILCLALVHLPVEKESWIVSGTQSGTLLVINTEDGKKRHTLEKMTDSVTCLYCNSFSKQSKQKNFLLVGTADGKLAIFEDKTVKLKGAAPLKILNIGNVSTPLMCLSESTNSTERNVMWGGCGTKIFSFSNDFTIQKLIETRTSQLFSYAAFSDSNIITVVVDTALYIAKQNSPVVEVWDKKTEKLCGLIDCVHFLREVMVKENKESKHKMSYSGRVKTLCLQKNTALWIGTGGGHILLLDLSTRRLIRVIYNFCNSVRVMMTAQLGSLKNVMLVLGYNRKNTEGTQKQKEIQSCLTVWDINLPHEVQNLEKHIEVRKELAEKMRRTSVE
# assay-procedure: LRRK2 kinase activity assay (ADP-Glo, LRRKtide peptide)
# conditions: human recombinant LRRK2 wt, LRRKtide peptide and ATP, 1 h at 37° C.
pIC50: −log10 of the molar value.
Quick reference for pIC50 among some compounds

Observe how each entry below is paired with its result.
c1cc2[nH]nc3c2cc1OCCCNCCOc1cc-3cc(C2CCOCC2)c1; > 8.00
C[C@@H]1CCNCCCn2cc(cn2)-c2n[nH]c3ccc(cc23)O1; > 7.00
COC1CNC(=O)COc2cccc(c2)-c2n[nH]c3ccc(cc23)OC1 (stereo not drawn); > 7.00
Cc1cc2cc(c1)-c1n[nH]c3ccc(cc13)OCCCNC(=O)CO2; > 8.00

Sample Cc1ccc2cc1OCCNCCCOc1ccc3[nH]nc-2c3c1 — what was its pIC50? > 8.00

Name the recorded pIC50 for Cc1ccc2cc1OCC(=O)NCCCOc1ccc3[nH]nc-2c3c1 . > 8.00

###

# target: human recombinant LRRK2 protein (Homo sapiens)
# assay-procedure: LRRK2 kinase activity assay (ADP-Glo, LRRKtide peptide)
# conditions: human recombinant LRRK2 wt, LRRKtide peptide and ATP, 1 h at 37° C.
property-name: IC50

O=C1COc2cc(cc(N3CCN(CC4CC4)CC3)c2)-c2n[nH]c3ccc(cc23)OCCCN1; < 10 nM
C[C@@H]1COCCCOc2ccc3[nH]nc(c3c2)-c2ccnc(n2)O1; < 10 nM
C[C@H]1COc2cc3c(n[nH]c3cn2)-c2cnn(c2)CCOCCO1; < 100 nM

Fill in the recorded IC50 for this compound, with human recombinant LRRK2 protein (Homo sapiens) as test system: CN1CCCOc2ccc3[nH]nc(c3c2)-c2cc(ccn2)OCC1=O < 1000 nM

API: value(readout= IC50, system= human recombinant LRRK2 protein (Homo sapiens), query= C[C@@H]1CCOC[C@H](C)Oc2cncc(c2)-c2n[nH]c3ccc(cc23)O1 ) < 10 nM

Under human recombinant LRRK2 protein (Homo sapiens): IC50 value of O=C1COc2cc(cc(N3CCC(F)(F)C3)c2)-c2n[nH]c3ccc(cc23)OCCCN1 ? < 10 nM

###

Each record here notes measured IC50.
# target: human recombinant LRRK2 protein (Homo sapiens, UniProt Q5S007)
# assay-procedure: LRRK2 kinase activity assay (ADP-Glo, LRRKtide peptide)
# conditions: human recombinant LRRK2 wt, LRRKtide peptide and ATP, 1 h at 37° C.

c1cc2cc(c1)-c1n[nH]c3ccc(cc13)OCCCNCCO2; < 10 nM
O=C1COc2cc(-c3ccoc3)cc(c2)-c2n[nH]c3ccc(cc23)OCCCN1; < 10 nM
C[C@@H]1CCOCCCOc2ccc3[nH]nc(c3c2)-c2cnn1c2; < 10 nM
c1cc2cc(c1)[C@H]1C[C@@H]1CNCCCOc1ccc3[nH]nc-2c3c1; < 1000 nM

Name the reported IC50 value associated with the compound CN1CCOCCOc2cc(cc(N3CCOCC3)c2)-c2n[nH]c3ccc(cc23)C1 < 100 nM

I have this compound here, COCC1CCOc2ccc3[nH]nc(c3c2)-c2cccc(c2)OCCN1 (single isomer, unassigned) [Example 153] , and I need its recorded IC50. < 100 nM

Requested field: IC50. Item: CC1CNCCCOc2ccc3[nH]nc(c3c2)-c2cc(cc(N3CCOCC3)c2)O1 (single isomer, unassigned) [Example 177] < 10 nM

Look at this compound and give its reported IC50. C[C@@H]1NCCOc2cccc(c2)-c2n[nH]c3ccc(cc23)OC[C@H]1F < 100 nM

What value of IC50 has been recorded for this entry: CC1CCOc2ccc3[nH]nc(c3c2)-c2cccc(n2)OCCN1 (centres unmarked) < 10 nM

Request the reported IC50 associated with C[C@H]1CCNCCCn2cc(cn2)-c2n[nH]c3ccc(cc23)O1 < 10 nM

Give the measured IC50 of C[C@H]1CCOC[C@H](C)Oc2cncc(c2)-c2n[nH]c3ccc(cc23)O1 . < 100 nM

GET /values?readout=IC50&item= CC1(C)Oc2cncc(c2)-c2n[nH]c3ccc(cc23)OCCCNC1=O < 10 nM

###

# target: human recombinant LRRK2 protein (Homo sapiens, UniProt Q5S007)
# assay-procedure: LRRK2 kinase activity assay (ADP-Glo, LRRKtide peptide)
# conditions: human recombinant LRRK2 wt, LRRKtide peptide and ATP, 1 h at 37° C.
# Protocol: The inhibition of LRRK2 kinase was assessed using human recombinant LRRK2 protein in an in vitro peptide-based kinase assay. LRRK2 Kinase reactions were carried out in 384-well white polystyrene plates in a final volume of 6 μl using ADP-Glo™ Kinase Assay kit (Promega Corp.). […] A final 30-minutes incubation after 12 μL reagent-2 addition (ADP to ATP conversion and luciferin/luciferase reaction) was performed before luminescent signal acquisition (EnVision™ multimode plate reader—PerkinElmer, Inc.). […]
pIC50: −log10 of the molar value.
Catalogue of molecules with associated pIC50

CC1CNCCCOc2ccc3[nH]nc(c3c2)-c2cc(cc(N3CCOCC3)c2)O1 (single isomer, unassigned) [Example 178]; > 8.00
C[C@@H]1COCCOCCc2nc(cn2C)-c2n[nH]c3ccc(cc23)O1 [Example 76]; < 6.00
O=C1COc2cccc(c2)-c2n[nH]c3ccc(cc23)OCCC(CF)N1 (stereo not drawn) [Example 154]; > 7.00
c1cc2[nH]nc3c2cc1OCCOCCCCn1cc-3cn1 [Example 104]; > 8.00

What pIC50 value was documented for this molecule, C[C@@H]1CCCOC[C@@H](C)n2cc(cn2)-c2n[nH]c3ccc(cc23)O1 [Example 128] ? > 8.00

Please report the recorded pIC50 for C[C@@H]1CCOC[C@@H](C)Oc2cncc(c2)-c2n[nH]c3ccc(cc23)O1 [Example 23] . > 8.00

Field request: pIC50 | item: O=C1COc2cncc(n2)-c2n[nH]c3ccc(cc23)OCCCN1 [Example 193] > 8.00

###

# target: human recombinant LRRK2 protein (Homo sapiens)
# assay-procedure: LRRK2 kinase activity assay (ADP-Glo, LRRKtide peptide)
# conditions: human recombinant LRRK2 wt, LRRKtide peptide and ATP, 1 h at 37° C.
pIC50: −log10 of the molar value.
property-name: pIC50

Some solved cases for reference:
C[C@H]1COCCOCCc2cncc(c2)-c2n[nH]c3ccc(cc23)O1 [Example 69]; > 7.00
C[C@@H]1COCCOc2ccc3[nH]nc(c3c2)-c2cnn(c2)CCO1 [Example 60]; > 7.00
Fc1ccc2cc1OCCNCCCOc1ccc3[nH]nc-2c3c1 [Example 139]; > 8.00
C[C@@H]1COc2ccc3[nH]nc(c3c2)-c2cccc(c2)OCCN[C@H]1C [Example 169]; > 7.00
C[C@H]1COc2ccc3[nH]nc(c3c2)-c2cnn(c2)[C@@H](C)COCCO1 [Example 89]; > 8.00
O=C1CCn2ncc(n2)-c2n[nH]c3ccc(cc23)OCCCN1 [Example 181]; > 8.00
C[C@@H]1CNCCO[C@H](C)c2cncc(c2)-c2n[nH]c3ccc(cc23)O1 (single isomer, unassigned) [Example 235]; > 7.00
C[C@H]1COCCOCCn2ccc(n2)-c2n[nH]c3ccc(cc23)O1 [Example 80]; > 6.00
C[C@@H]1CCO[C@@H](C)CCn2cc(cn2)-c2n[nH]c3ccc(cc23)O1 [Example 97]; > 8.00
C[C@@H]1CCN(C)CC[C@H](C)n2ncc(n2)-c2n[nH]c3ccc(cc23)O1 [Example 244]; > 7.00

Now for the compound whose pIC50 we want.
Record request: pIC50 value, item c1cc2[nH]nc3c2cc1NCCOCCOc1cc-3cc(N2CCOCC2)c1 [Example 1] > 8.00
